- Test system: pressor response to angiotensin I
- experiment: Inhibition of pressor response to angiotensin I in rats after oral administration
- Type: in vivo, rat (male Wistar)
- assay_context: 55 min, angiotensin I 300 ng/kg i.v., dose: 3, 45, 49 1.8 mg/kg, 4, 46 1.3, 50 1.4, 76 2.0, 77 1.5
Below, each entry is listed alongside its reported Inhibition (%) of pressor response to angiotensin I, 55 min.
The reply should be a number in %, with the unit left off.

* C[C@H](CS)C(=O)N1C(C2CCCCC2)SC[C@H]1C(=O)O (stereo partly shown) [Compound 4] | 27.5
* C[C@H](CS)C(=O)N1C(c2ccccc2O)SC[C@H]1C(=O)O (stereo partly shown) [Compound 50] | 31.7
* COc1ccc(C2SC[C@@H](C(=O)O)N2C(=O)[C@H](C)CSC(=O)c2ccccc2)c(O)c1 (stereo partly shown) [Compound 76] | 47.1

Alright, here's another compound for you.
Ask: State, in one line, measured Inhibition (%) of pressor response to angiotensin I, 55 min of C[C@H](CSC(=O)c1ccccc1)C(=O)N1C(C2CCCCC2)SC[C@H]1C(=O)O (stereo partly shown) [Compound 3]
Result: 14.8

====

- Tested on: pressor response to angiotensin I
- experiment: Inhibition of pressor response to angiotensin I in rats after oral administration
- Assay type: in vivo, rat (male Wistar)
- assay_context: 15 min, angiotensin I 300 ng/kg i.v., dose: 3, 45, 49 1.8 mg/kg, 4, 46 1.3, 50 1.4, 76 2.0, 77 1.5
Below, each entry is listed alongside its reported Inhibition (%) of pressor response to angiotensin I, 15 min.
The reply should be a number in %, with the unit left off.

Past entries and their recorded results:
• COc1ccc(C2SC[C@@H](C(=O)O)N2C(=O)[C@H](C)CSC(=O)c2ccccc2)c(O)c1 (stereo partly shown) = 45.9
• C[C@H](CS)C(=O)N1C(C2CCCCC2)SC[C@H]1C(=O)O (stereo partly shown) = 46.5
• COc1ccc(C2SC[C@@H](C(=O)O)N2C(=O)[C@H](C)CS)c(O)c1 (stereo partly shown) = 45.0

Ask: State, in one line, measured Inhibition (%) of pressor response to angiotensin I, 15 min of O=C(O)[C@@H]1CSC(c2ccccc2O)N1C(=O)CCS (stereo partly shown)
Result: 62.9

Ask: State, in one line, measured Inhibition (%) of pressor response to angiotensin I, 15 min of O=C(SCCC(=O)N1C(c2ccccc2O)SC[C@H]1C(=O)O)c1ccccc1 (stereo partly shown)
Result: 26.6

Ask: State, in one line, measured Inhibition (%) of pressor response to angiotensin I, 15 min of C[C@H](CSC(=O)c1ccccc1)C(=O)N1C(C2CCCCC2)SC[C@H]1C(=O)O (stereo partly shown)
Result: 40.8

Ask: State, in one line, measured Inhibition (%) of pressor response to angiotensin I, 15 min of C[C@H](CS)C(=O)N1C(c2ccccc2O)SC[C@H]1C(=O)O (stereo partly shown)
Result: 22.7

====

- experiment: Acute toxicity test
- assay_context: rat, in vivo, ip; dissolved in distilled water; pH 7; read-out: LD i.p.
parameter_measured: LD50

Ask: State, in one line, measured LD50 of C[C@H](CS)C(=O)N1C(c2ccccc2)SC[C@H]1C(=O)O (stereo partly shown)
Result: > 1000 mg/kg

====

- experiment: Acute toxicity test
- assay_context: rat, in vivo, po; suspended in 0.5% tragacanth solution; read-out: LD50 p.o.
parameter_measured: LD50

Ask: State, in one line, measured LD50 of O=C(O)[C@@H]1CSC(c2ccccc2O)N1C(=O)CCS (stereo partly shown)
Result: > 10000 mg/kg
